Target: Phosphatidylinositol 4,5-bisphosphate 3-kinase catalytic subunit beta isoform (Homo sapiens)
Sequence (P42338 whole entry, looked up, canonical isoform): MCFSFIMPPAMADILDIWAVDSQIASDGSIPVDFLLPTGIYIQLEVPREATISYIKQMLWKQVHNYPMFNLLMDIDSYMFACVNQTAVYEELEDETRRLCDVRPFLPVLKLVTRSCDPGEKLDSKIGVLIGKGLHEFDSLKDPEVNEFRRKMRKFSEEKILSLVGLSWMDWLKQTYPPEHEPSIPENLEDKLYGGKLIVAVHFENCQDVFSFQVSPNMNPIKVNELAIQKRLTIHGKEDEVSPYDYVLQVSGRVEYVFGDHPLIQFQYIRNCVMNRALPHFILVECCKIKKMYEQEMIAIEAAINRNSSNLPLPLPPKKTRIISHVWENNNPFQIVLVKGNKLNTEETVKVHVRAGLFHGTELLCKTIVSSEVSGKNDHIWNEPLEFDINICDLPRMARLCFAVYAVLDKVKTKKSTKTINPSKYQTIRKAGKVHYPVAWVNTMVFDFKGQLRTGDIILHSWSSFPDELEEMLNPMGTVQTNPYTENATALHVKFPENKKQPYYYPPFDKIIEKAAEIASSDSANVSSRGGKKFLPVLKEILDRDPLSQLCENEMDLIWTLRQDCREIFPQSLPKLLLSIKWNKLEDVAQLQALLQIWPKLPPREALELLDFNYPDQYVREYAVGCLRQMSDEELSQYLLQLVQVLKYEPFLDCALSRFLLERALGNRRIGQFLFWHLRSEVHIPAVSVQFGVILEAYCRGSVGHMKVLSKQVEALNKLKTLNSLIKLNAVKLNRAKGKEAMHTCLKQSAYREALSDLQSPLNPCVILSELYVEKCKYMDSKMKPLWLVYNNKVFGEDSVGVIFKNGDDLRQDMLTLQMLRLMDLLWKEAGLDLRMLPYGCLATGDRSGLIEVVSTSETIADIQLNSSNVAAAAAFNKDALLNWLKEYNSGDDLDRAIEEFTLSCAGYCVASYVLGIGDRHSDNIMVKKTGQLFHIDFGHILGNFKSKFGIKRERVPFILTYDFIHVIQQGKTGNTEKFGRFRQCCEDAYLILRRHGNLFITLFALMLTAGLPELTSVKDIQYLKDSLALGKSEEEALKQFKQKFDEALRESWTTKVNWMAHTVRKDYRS
Experiment: Inhibition of N-terminal His6-tagged recombinant full length human PI3Kbeta expressed in baculovirus infected Sf21 insect cells at 1 uM by HTRF assay relative to control
Listed next: entries and their corresponding inhibition.
Write down the numeric answer in % and omit the unit.

Look over these answered cases.
[[record]]
cpd_smiles = "C[C@H]1CC[C@@H](c2nc3cccc(C#Cc4ccsc4)c3c(=O)n2-c2ccccc2)N1c1nc(N)nc(N)c1C#N"
observed_result = 15

[[record]]
cpd_smiles = "C[C@H]1CC[C@@H](c2nc3cccc(-c4cnn(C5CC5)c4)c3c(=O)n2-c2ccccc2)N1c1nc(N)nc(N)c1C#N"
observed_result = 2

[[record]]
cpd_smiles = "C[C@H]1CC[C@@H](c2nc3cccc(Cl)c3c(=O)n2-c2cc(F)cc(F)c2)N1c1nc(N)nc(N)c1C#N"
observed_result = 43

[[record]]
cpd_smiles = "C[C@H]1CC[C@@H](c2nc3cccc(Cl)c3c(=O)n2-c2cccc(F)c2)N1c1nc(N)nc2[nH]cnc12"
observed_result = 57

[[record]]
cpd_smiles = "C[C@H]1CC[C@@H](c2nc3ccc(F)cc3c(=O)n2-c2cccnc2)N1c1nc(N)nc(N)c1C#N"
observed_result = 98


Challenge: Output measured inhibition for this item: COc1ccc(-c2cccc3nc([C@@H]4CC[C@H](C)N4c4nc(N)nc(N)c4C#N)n(-c4ccccc4)c(=O)c23)cn1
Response given: 77

Challenge: Name the recorded inhibition of the item C[C@H]1CC[C@@H](c2nc3cccc(-c4cccnc4)c3c(=O)n2-c2ccccc2)N1c1nc(N)nc(N)c1C#N in your answer.
Response given: 19

Challenge: Tell me its inhibition given Cc1cccc(C#Cc2cccc3nc([C@@H]4CC[C@H](C)N4c4nc(N)nc(N)c4C#N)n(-c4ccccc4)c(=O)c23)c1 as the entry.
Response given: 69

Challenge: Give inhibition for CCCn1cc(-c2cccc3nc([C@@H]4CC[C@H](C)N4c4nc(N)nc(N)c4C#N)n(-c4ccccc4)c(=O)c23)cn1
Response given: 13

###

System: DOHH-2
Experiment: Antiproliferative activity against human DOHH-2 cells assessed as cell growth inhibition measured after 72 hrs by MTT assay
Type: functional, cell-based
Conditions: DOHH-2, 72 h
compounds and their reported IC50
Field: numeric (nM). Do not append units.

Here's what some known entries look like.
[[record]]
cpd_smiles = "N#Cc1c(N)nc(N)nc1N1[C@H](c2nc3cccc(Cl)c3c(=O)n2-c2cc(F)cc(F)c2)C[C@@H]2CCCC[C@@H]21"
observed_result = 3540

[[record]]
cpd_smiles = "C[C@H]1CC[C@@H](c2nc3cccc(-c4cnn(C5CC5)c4)c3c(=O)n2-c2cccnc2)N1c1nc(N)nc(N)c1C#N"
observed_result = 2130

[[record]]
cpd_smiles = "Cc1ccccc1C#Cc1cccc2nc([C@@H]3CC[C@H](C)N3c3nc(N)nc(N)c3C#N)n(-c3ccccc3)c(=O)c12"
observed_result = 760

[[record]]
cpd_smiles = "COc1cncc(-c2cccc3nc([C@@H]4CC[C@H](C)N4c4nc(N)nc(N)c4C#N)n(-c4ccccc4)c(=O)c23)c1"
observed_result = 290

[[record]]
cpd_smiles = "C[C@H]1CC[C@@H](c2nc3cccc(C#Cc4cccnc4)c3c(=O)n2-c2ccccc2)N1c1nc(N)nc(N)c1C#N"
observed_result = 690


Challenge: Tell me its IC50 given C[C@H]1CC[C@@H](c2nc3cccc(Cl)c3c(=O)n2-c2cc(F)cc(F)c2)N1c1nc(N)nc(N)c1C#N as the entry.
Response given: 1170

Challenge: Item C[C@H]1CC[C@@H](c2nc3cccc(C#Cc4ccccn4)c3c(=O)n2-c2ccccc2)N1c1nc(N)nc(N)c1C#N : provide IC50
Response given: 790

Challenge: # return recorded IC50 for input C[C@H]1CC[C@@H](c2nc3cccc(-c4cncnc4)c3c(=O)n2-c2ccccc2)N1c1nc(N)nc(N)c1C#N
Response given: 1940

Challenge: Fill in reported IC50 for this entry: COc1cccc(C#Cc2cccc3nc([C@@H]4CC[C@H](C)N4c4nc(N)nc(N)c4C#N)n(-c4ccccc4)c(=O)c23)c1
Response given: 450

Challenge: Give reported IC50 value for COc1cncc(-c2cccc3nc([C@@H]4CC[C@H](C)N4c4nc(N)nc(N)c4C#N)n(-c4cccc(F)c4)c(=O)c23)c1
Response given: 520

Challenge: # return recorded IC50 for entry CC(C)n1cc(-c2cccc3nc([C@@H]4CC[C@H](C)N4c4nc(N)nc(N)c4C#N)n(-c4ccccc4)c(=O)c23)cn1
Response given: 540

Challenge: Tell us which IC50 value is on record for C[C@H]1CC[C@@H](c2nc3cccc(Cl)c3c(=O)n2N2CCOCC2)N1c1nc(N)nc(N)c1C#N
Response given: 370

Challenge: Provide measured IC50 value, entry: C[C@H]1CC[C@@H](c2nc3cccc(Cl)c3c(=O)n2-c2ccccc2)N1c1nc(N)nc2[nH]cnc12
Response given: 280

Challenge: Identify measured IC50 associated with C[C@H]1CC[C@@H](c2nc3cccc(-c4cnn(C)c4)c3c(=O)n2-c2ccccc2)N1c1nc(N)nc(N)c1C#N
Response given: 680

Challenge: Please indicate IC50 recorded for Cc1cccc2nc([C@@H]3CC[C@H](C)N3c3nc(N)nc(N)c3C#N)n(-c3cccnc3)c(=O)c12
Response given: 130
